Just for reference, patent US10919885B2 is where these values come from.

Each entry below lists one item and its recorded pIC50 value.
# subject of test: UniProt:O00767
# measurement description: Yeast growth assay, strain expressing human SCD1 as the sole desaturase (reduced growth as surrogate for SCD inhibition)
# experimental parameters: yeast with OLE1 deleted expressing human SCD1 from a plasmid; growth read as OD600 after 40 h at 30° C.; top drug concentration 33.3 μM
pIC50: −log10 of the molar value.

Ask | Name the reported pIC50 value associated with the compound N#Cc1ccc(-c2cc(C(=O)N3CCC(c4ccccc4)CC3)no2)cc1
Reply | < 4.35

###

# subject of test: human SCD1 (Homo sapiens (Human), UniProt O00767)
# Sequence (O00767 whole entry): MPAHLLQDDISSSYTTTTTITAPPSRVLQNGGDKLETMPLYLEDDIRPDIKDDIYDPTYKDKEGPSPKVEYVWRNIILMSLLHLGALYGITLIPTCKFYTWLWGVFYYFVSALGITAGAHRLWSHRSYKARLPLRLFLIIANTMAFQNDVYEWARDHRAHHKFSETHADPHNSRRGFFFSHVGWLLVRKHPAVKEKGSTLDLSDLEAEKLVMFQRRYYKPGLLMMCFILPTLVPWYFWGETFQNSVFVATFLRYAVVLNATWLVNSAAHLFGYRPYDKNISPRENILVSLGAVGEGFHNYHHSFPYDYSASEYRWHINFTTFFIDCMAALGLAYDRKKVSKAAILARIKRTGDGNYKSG
# measurement description: Yeast growth assay, strain expressing human SCD1 as the sole desaturase (reduced growth as surrogate for SCD inhibition)
# experimental parameters: yeast with OLE1 deleted expressing human SCD1 from a plasmid; growth read as OD600 after 40 h at 30° C.; top drug concentration 33.3 μM
# IC50 per entry

- Cn1ccnc1C1CCCN1C(=O)c1cc(-c2ccc3c(c2)OCO3)on1 (centres unmarked) [Compound 446]: > 45 µM
- O=C(c1cc(-c2ccco2)on1)N(Cc1ccc(Cl)cc1)c1cnn(Cc2ccc(Cl)cc2)c1 [Compound 32]: > 45 µM
- O=C(c1cc(-c2ccc3c(c2)OCO3)on1)N1CCc2ccccc2C1 [Compound 260]: > 45 µM
- COc1ccccc1Cn1cc(NC(=O)c2cc(-c3ccccc3)on2)cn1 [Compound 125]: > 45 µM
- O=C(Nc1cnn(Cc2ccccc2)c1)c1cc(-c2ccc(F)cc2F)on1 [Compound 157]: > 45 µM

Ask | # get_value(readout='IC50', item= O=C(NC1CCN(Cc2ccccc2)C1)c1cc(-c2ccco2)on1 (centres unmarked) [Compound 337] )
Reply | > 45 µM

Ask | Sample O=C(Nc1cnn(Cc2ccc(Cl)cc2)c1)c1cc(-c2ccco2)on1 [Compound 15] — what was its IC50?
Reply | > 45 µM

Ask | # get_value(readout='IC50', item= O=C(Nc1cnn(Cc2cccc(C(F)(F)F)c2)c1)c1cc(-c2ccco2)on1 [Compound 20] )
Reply | > 45 µM

Ask | So what's the measured IC50 for this one? O=C(c1cc(-c2ccc3c(c2)OCO3)on1)N1CCC[C@H]1c1ccon1 [Compound 426]
Reply | > 45 µM
